- Test system: Escherichia coli
- experiment: Antibacterial activity against Escherichia coli ATCC 25922 assessed as growth inhibition after 24 hr by serial broth dilution method
- setup-conditions: ATCC 25922, 24 h
recorded-endpoint: MIC (µg/mL)
Numbers only, in µg/mL.

Examples with their reported MIC follow.
>  <molecule>
CN(C)c1ccc(C(CC(=O)c2cc3ccccc3o2)Nc2ccc(C(=O)O)cc2)cc1 (centres undefined)

>  <MIC, µg/mL>
50

$$$$
>  <molecule>
O=C(CC(Nc1ccccc1)c1ccccc1)c1cc2ccccc2o1 (centres undefined)

>  <MIC, µg/mL>
500

$$$$
>  <molecule>
O=C(CC(Nc1ccccc1)c1ccccc1)c1cc2ccccc2oc1=O (centres undefined)

>  <MIC, µg/mL>
500

$$$$
>  <molecule>
O=C(O)c1ccc(NC(CC(=O)c2cc3ccccc3o2)c2ccccc2)cc1 (centres undefined)

>  <MIC, µg/mL>
500

$$$$

Respectfully, I request MIC for each entry included below.
1. O=C(O)c1ccc(NC(CC(=O)c2cc3ccccc3oc2=O)c2ccc(Cl)cc2)cc1 (centres undefined)
2. COc1ccc(C(CC(=O)c2cc3ccccc3o2)Nc2ccc(C(=O)O)cc2)cc1 (centres undefined)
3. O=C(O)c1ccc(NC(CC(=O)c2cc3ccccc3o2)c2ccc(Cl)cc2)cc1 (centres undefined)
4. O=C(O)c1ccc(NC(CC(=O)c2cc3ccccc3o2)c2ccc([N+](=O)[O-])cc2)cc1 (centres undefined)

Return:
1: 50; 2: 500; 3: 120; 4: 500

Enquiry: Query (molecule): O=C(O)c1ccc(NC(CC(=O)c2cc3ccccc3o2)c2ccc(F)cc2)cc1 (centres undefined) ; field requested: MIC
Return: 300
